Tested on: Mast cells
Assay: Effects on histamine release from mast cells induced by compound 48/80
Format: cell-based
Details: Mast cell; 10 μg/ml test compound; compound 48/80 induced; read-out: Inhibition of histamine release
Counter-ions that a name gives are not always drawn.
Catalogue of inhibition at 10 µg/mL values
quantity-name: inhibition at 10 µg/mL (%)

[[record]]
compound = "N=C(N)NC[C@H]1CC[C@H](C(=O)Oc2ccccc2)CC1 [Compound A, hydrochloride, reference compound]"
assay_result = 5

[[record]]
compound = "O=C(O)c1cc(=O)c2c(OCC(O)COc3cccc4oc(C(=O)O)cc(=O)c34)cccc2o1 [DSCG, Disodium cromoglycate, reference compound]"
assay_result = 10

[[record]]
compound = "N=C(N)NC[C@H]1CC[C@H](C(=O)Oc2ccc3c(c2)CCC3)CC1 [Compound 23, hydrochloride]"
assay_result = 12.7

[[record]]
compound = "N=C(N)NC[C@H]1CC[C@H](C(=O)Oc2ccc(I)cc2)CC1 [Compound 7, hydrochloride]"
assay_result = 18.4

[[record]]
compound = "N=C(N)NC[C@H]1CC[C@H](C(=O)Oc2ccc3ccccc3c2[N+](=O)[O-])CC1 [Compound 29, hydrochloride]"
assay_result = 20.6

[[record]]
compound = "Cc1cc(OC(=O)[C@H]2CC[C@H](CNC(=N)N)CC2)c(C(C)C)cc1Cl [Compound 14, hydrochloride]"
assay_result = 38.8

[[record]]
compound = "N=C(N)NC[C@H]1CC[C@H](C(=O)Oc2ccc(Cl)c3ccccc23)CC1 [Compound 28, hydrochloride]"
assay_result = 60.9


Hey, just so you know, these numbers are from patent US4465851A.
